test system: Candida albicans; conditions: 20 µM
Description: Antifungal activity against Candida albicans ATCC 90028 (CO-ADD:FG_001); MIC in YNB media using NBS plates, by OD630
Potency and affinity values are given separately.
# Inhibition annotations
Write the answer as a number in %, unit excluded.

Some solved cases for reference:
{"columns": ["MOLECULE", "ENDPOINT VALUE"],
 "data": [
  ["CN1C(=O)NC(=O)C(/N=N/c2ccc(Cl)cc2)C1=O (stereo unspecified)", 1.14],
  ["O=C1C[C@@H]2OCC=C3C[N+]4([O-])CC[C@]56c7ccccc7N1[C@H]5[C@H]2[C@H]3C[C@@H]64 (stereo partly specified)", 3.06],
  ["CC(CC(C#N)(c1ccccc1)c1ccccc1)N1CCCCC1 (stereo unspecified)", 0.01],
  ["CC1=CC(O)C(O)C2(C)C1CC1OC(=O)C(O)C3C(C)C(O)C4(O)OCC13C42 (stereo unspecified)", -0.21],
  ["CC1(C)NC(=S)C(C)(C)N1N=O", 5.47],
  ["O=C1NC(=O)C(=Cc2csc3ccccc23)C(=O)N1", 23.9],
  ["CN1CCN(c2nc(N)cc(O)n2)CC1", 7.43],
  ["COc1cc2c(cc1O)CC1c3c(cc(O)c(OC)c3-2)CCN1C (stereo unspecified)", -2.23]
]}

Record CN1C2CCC1[C@@H](COC(=O)c1ccccc1)[C@@H](O)C2 (stereo partly specified) . Reported Inhibition: 4.47

Record CC(Cc1ccccc1)NC(N)=O (stereo unspecified) . Reported Inhibition: 1.15

Record Cc1ccc(N2C(=O)C(=CN)C(=O)N(c3ccc(C)cc3)C2=O)cc1 . Reported Inhibition: -1.3

----------
system: Candida albicans; details: 20 µM
Measured potencies and affinities stand elsewhere.
# Inhibition annotations
Write the answer as a number in %, unit excluded.

{"columns": ["COMPOUND", "Inhibition (%)"],
 "data": [
  ["c1cnc2c(c1)ccc1ncccc12", 0.86],
  ["CN1CCc2cc3c(cc2C1)OCO3", 1.35],
  ["Cn1cc(C=O)c2nccnc21", 1.67],
  ["COc1cc(OC)cc(C2(C#N)CCN(C)CC2)c1", 8.63]
]}

Now consider a different compound.
Record c1ccc(C2NCCc3[nH]cnc32)cc1 (stereo not given) . Reported Inhibition: 0.7

----------
system: Klebsiella pneumoniae; settings: Concentration 20 uM; ASSAY_TEST Inhibition of Bacterial Growth; detection method Absorption (OD600); MEDIA CAMHB; plate type 384well; NBS; CORNING #3640; time 18 hr
Description: Antibacterial activity against Klebsiella pneumoniae MDR ATCC 70063 (CO-ADD:GN_003); MIC in CAMBH media using NBS plates, by OD(600)
Results with a measured potency or affinity are listed apart.
QUANTITY: Inhibition (%)
Write the answer as a number in %, unit excluded.

Record CCOP(=O)(OCC)/C(C#N)=C/c1ccc(-c2ccc(F)cc2F)o1 . Reported Inhibition: 5.2

Record O=C1NC(=O)C(=Cc2ccc3ccccc3c2)C(=O)N1 . Reported Inhibition: 19.68

Record C/C=C/CC1(CC)C(=O)NC(=S)NC1=O . Reported Inhibition: 1.47

Record CC12CCC3C(CC=C4CC(O)CCC43C)C1C/C(=C\N1CCCC1)C2=O (stereo unspecified) . Reported Inhibition: 23.67

Record N#CC(C#N)=Cc1ccc(C=C(C#N)C#N)cc1 . Reported Inhibition: 11.67

Record C[C@]12CC[C@@H]3c4ccc(OC(=O)N(CCCl)CCCl)cc4CC[C@H]3[C@@H]1CC[C@@H]2O . Reported Inhibition: 12.05

Record CC(Cc1ccccc1)NC(N)=O (stereo unspecified) . Reported Inhibition: 16.63

Record Cc1nc(C)c(C(=O)N/N=C/c2ccc(N(CCCl)CCCl)cc2)s1 . Reported Inhibition: 6.18

Record O=C1CCCN1CC#CCN1CCCC1 . Reported Inhibition: 1.39

Record Nc1nc(N)c2cnnn2n1 . Reported Inhibition: 8.25

Record O=C(O)CN1C(=O)CN=C(c2ccccn2)c2cc(Cl)ccc21 . Reported Inhibition: 10.65

This collection of values is drawn from ChEMBL document CHEMBL4296182.
